Each recorded value in this set is attributed to ChEMBL document CHEMBL4052827.

Task for the reader: assign each of the following compounds its reported remaining at 10 min, 0.5 µM.
ASSAY_EXPLANATION: Metabolic stability in mouse liver microsomes assessed as parent compound remaining at 0.5 uM after 10 mins in presence of NADPH by LC-MS/MS analysis

Give the reported value of remaining at 10 min, 0.5 µM for this record: c1ccc2c(c1)CN[C@@H](CN(CCCCNCc1ccncc1)[C@H]1CCCc3cccnc31)C2
6.44%

Quickly give me recorded remaining at 10 min, 0.5 µM for c1ccc2c(c1)CN[C@@H](CN(CCCCNC1CCNCC1)[C@H]1CCCc3cccnc31)C2
38%

Return remaining at 10 min, 0.5 µM (reported value) for this compound: c1ccc2c(c1)CN[C@@H](CN(CCCCNC1CCCCC1)[C@H]1CCCc3cccnc31)C2
43.8%

Identify the reported remaining at 10 min, 0.5 µM for the following entry. O=S1(=O)CCC(NCCCCN(C[C@H]2Cc3ccccc3CN2)[C@H]2CCCc3cccnc32)CC1
17.6%

Return value of remaining at 10 min, 0.5 µM for input CC(C)(CCN)CN(C[C@H]1Cc2ccccc2CN1)[C@H]1CCCc2cccnc21 , no commentary.
5.22%

Recall and state the measured remaining at 10 min, 0.5 µM for c1ccc2c(c1)CN[C@@H](CN(CCCCNCC1CCCCC1)[C@H]1CCCc3cccnc31)C2 .
41.8%

Supply measured remaining at 10 min, 0.5 µM of CC1(C)CCC(NC/C=C/CN(C[C@H]2Cc3ccccc3CN2)[C@H]2CCCc3cccnc32)CC1 in your reply.
7.71%

State its remaining at 10 min, 0.5 µM for this compound: NCc1cccc(CN(C[C@H]2Cc3ccccc3CN2)[C@H]2CCCc3cccnc32)c1
89.2%

// Input: c1ccc2c(c1)CN[C@@H](CN(CCCCNC1CCOCC1)[C@H]1CCCc3cccnc31)C2 . Output its remaining at 10 min, 0.5 µM only.
55.8%

Item c1ccc(CN(CCCCN(C[C@H]2Cc3ccccc3CN2)[C@H]2CCCc3cccnc32)Cc2ccccn2)nc1 : provide remaining at 10 min, 0.5 µM
0.374%

Fill in remaining at 10 min, 0.5 µM for record FC1(F)CCC(NCc2ccc(CN(C[C@H]3Cc4ccccc4CN3)[C@H]3CCCc4cccnc43)cc2)CC1
30.2%

Read off the recorded remaining at 10 min, 0.5 µM for CC1(C)CCC(NCCCCN(C[C@H]2Cc3ccccc3CN2)[C@H]2CCCc3cccnc32)CC1
50%

For the compound c1ccc2c(c1)CN[C@@H](CN(CCCCN(Cc1ccncc1)Cc1ccncc1)[C@H]1CCCc3cccnc31)C2 , give its measured remaining at 10 min, 0.5 µM value.
1.55%

State its remaining at 10 min, 0.5 µM for this compound: CC1(C)CCC(NCc2ccc(CN(C[C@H]3Cc4ccccc4CN3)[C@H]3CCCc4cccnc43)cc2)CC1
23.2%

Item c1ccc(CN(CCCCN(C[C@H]2Cc3ccccc3CN2)[C@H]2CCCc3cccnc32)Cc2ccccc2)cc1 : provide remaining at 10 min, 0.5 µM
0.298%

Provide remaining at 10 min, 0.5 µM value for the following compound: C(=C\CN(C[C@H]1Cc2ccccc2CN1)[C@H]1CCCc2cccnc21)/CNCc1cccnc1
0.953%

Return reported remaining at 10 min, 0.5 µM. Input compound: FC1(F)CCC(NC/C=C/CN(C[C@H]2Cc3ccccc3CN2)[C@H]2CCCc3cccnc32)CC1
2.12%
